Source: patent US10065990B2

Tested on: DU145 (human prostate cancer cells)
method-notes: MTT cancer cell growth inhibition
Format: cell-based
measurement-context: Homo sapiens, DU-145, 72 h, MTT, 72 hours incubation; read-out: GI50 Du1
Kindly state GI50 for each of the entries shown.
# unit: nM | format: bare number

# GI50 (molecule: C=C1NC(=O)c2ccc(F)c(n2)CNC(=O)C[C@@H](/C=C/CCS)OC(=O)[C@H](C(C)C)NC1=O ) is 50

// GI50 lookup, molecule = C/C=C1\NC(=O)c2nc(ccc2F)CNC(=O)C[C@@H](/C=C/CCSC(=O)CCCC)OC(=O)[C@H](C(C)C)NC1=O , result: 20

Lab note: measured GI50 of C/C=C1\NC(=O)c2cc(F)cc(n2)CNC(=O)C[C@@H](/C=C/CCSC(C)=O)OC(=O)[C@@H](C)NC1=O was 30

Entry under test: C/C=C1\NC(=O)c2nc(ccc2F)CNC(=O)C[C@@H](/C=C/CCSC(=O)CC)OC(=O)[C@H](C(C)C)NC1=O . Its GI50 was 30

* * *

Please go through the items and note down their GI50.
Tested on: KBM5-T315I (human chronic myelogenous leukemia)
method-notes: MTT cancer cell growth inhibition
Assay type: cell-based
measurement-context: Homo sapiens, 72 h, MTT, 72 hours incubation, KBM5-T315I cells; read-out: GI50 KBM5-T315I
Respond numerically; units are nM and should not be typed.

So for C/C=C1\NC(=O)c2ccc(F)c(n2)CNC(=O)C[C@@H](/C=C/CCSC(C)=O)OC(=O)[C@H](CC)NC1=O , the logged GI50 turned out to be 74

Entry C/C=C1\NC(=O)c2cccc(n2)CNC(=O)C[C@@H](/C=C/CCS)OC(=O)[C@H](Cc2cccc3ccccc23)NC1=O , GI50 reported as 67

// GI50 lookup, compound = C/C=C1\NC(=O)c2ccc(F)c(n2)CNC(=O)C[C@@H](/C=C/CCSC(=O)CCCCCCC)OC(=O)[C@H](C(C)C)NC1=O , result: 58

The compound identified as C/C=C1\NC(=O)c2cc(F)cc(n2)CNC(=O)C[C@@H](/C=C/CCSC(=O)CCCCCC)OC(=O)[C@H](C(C)C)NC1=O registered its GI50 at 53

Lab note: C/C=C1\NC(=O)c2ccc(F)c(n2)CNC(=O)C[C@@H](/C=C/CCS)OC(=O)[C@H](C(C)C)NC1=O gave GI50 of 24

Per the records, this compound ( C/C=C1\NC(=O)c2nc(ccc2F)CNC(=O)C[C@@H](/C=C/CCSC(=O)CCCCCCC)OC(=O)[C@H](C)NC1=O ) has GI50 equal to 83

* * *

System: KBM5-T315I (human chronic myelogenous leukemia)
method-notes: MTT cancer cell growth inhibition
Type: cell-based
measurement-context: Homo sapiens, 72 h, MTT, 72 hours incubation, KBM5-T315I cells; read-out: GI50 KBM5-T315I
So I've got a bunch of compounds here, and I need their GI50 values.
Output spec: scalar in µM, unitless text.

# value of GI50, KBM5-T315I (human chronic myelogenous leukemia), item C/C=C1\NC(=O)c2cccc(n2)CCNC(=O)C[C@@H](/C=C/CCS)OC(=O)[C@H](C(C)C)NC1=O [Compound 146] = 0.023

Kindly note: KBM5-T315I (human chronic myelogenous leukemia), C/C=C1\NC(=O)c2ccc(SC)c(n2)CNC(=O)C[C@@H](/C=C/CCSC(C)=O)OC(=O)[C@H](CCCCNC(=O)OCC2c3ccccc3-c3ccccc32)NC1=O [Compound 197] , GI50 value reported: 0.021

Entry C/C=C1\NC(=O)c2cccc(n2)CNC(=O)C[C@@H](/C=C/CCSC(=O)CCCCC)OC(=O)[C@H](C(C)C)NC1=O [Compound 3] , KBM5-T315I (human chronic myelogenous leukemia) data, GI50 value: 0.034

The reported GI50 value, KBM5-T315I (human chronic myelogenous leukemia), for C/C=C1\NC(=O)c2nc(ccc2F)CNC(=O)C[C@@H](/C=C/CCSC(C)=O)OC(=O)[C@H](CCCCNC(=O)OCC2c3ccccc3-c3ccccc32)NC1=O [Example 75] reads 0.026

Log: KBM5-T315I (human chronic myelogenous leukemia), compound C/C=C1\NC(=O)c2ccc(SC)c(n2)CNC(=O)C[C@@H](/C=C/CCSC(C)=O)OC(=O)[C@H](CCCCN)NC1=O [Compound 194] , GI50 = 0.025

C/C=C1\NC(=O)c2nc(ccc2SC)CNC(=O)C[C@@H](/C=C/CCS)OC(=O)[C@H](C)NC1=O [Compound 232] on KBM5-T315I (human chronic myelogenous leukemia) gives GI50 = 0.043

Field GI50 (KBM5-T315I (human chronic myelogenous leukemia)), entry C/C=C1\NC(=O)c2cccc(n2)CNC(=O)C[C@@H](/C=C/CCSC(C)=O)OC(=O)[C@H](CC)NC1=O [Compound 10] : 0.024

Hey, KBM5-T315I (human chronic myelogenous leukemia) data for C=C1NC(=O)c2ccc(SC)c(n2)CNC(=O)C[C@@H](/C=C/CCSC(C)=O)OC(=O)[C@H](C(C)C)NC1=O [Compound 206] : GI50 came out at 0.039

The observed GI50 for C/C=C1\NC(=O)c2cccc(n2)CNC(=O)C[C@@H](/C=C/CCSC(=O)CCCCCCC)OC(=O)[C@H](C(C)C)NC1=O [Compound 1] when tested with KBM5-T315I (human chronic myelogenous leukemia) stands at 0.046

Record C/C=C1\NC(=O)c2nccc(n2)CNC(=O)C[C@@H](/C=C/CCS)OC(=O)[C@H](C(C)C)NC1=O [Compound 143] has KBM5-T315I (human chronic myelogenous leukemia) GI50 equal to 0.034

Query C/C=C1\NC(=O)c2cc(SCCC)cc(n2)CNC(=O)C[C@@H](/C=C/CCSC(=O)CCCCCCC)OC(=O)[C@H](CC)NC1=O [Compound 175] on KBM5-T315I (human chronic myelogenous leukemia); GI50 returned: 0.047

The reported KBM5-T315I (human chronic myelogenous leukemia) GI50 of C/C=C1\NC(=O)c2nc(ccc2F)CNC(=O)C[C@@H](/C=C/CCSC(C)=O)OC(=O)[C@H](CCCCN)NC1=O [Compound 72] is 0.039

Known value: KBM5-T315I (human chronic myelogenous leukemia) GI50 of the compound C/C=C1\NC(=O)c2cc(F)cc(n2)CNC(=O)C[C@@H](/C=C/CCSC(C)=O)OC(=O)[C@@H](C)NC1=O [Compound 101] equals 0.036
